- assay.target: furin, P09958;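 note: purified furin at 1:10 enzyme:substrate in 50 mM HEPES pH 7.5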
- Sequence (P09958 whole entry): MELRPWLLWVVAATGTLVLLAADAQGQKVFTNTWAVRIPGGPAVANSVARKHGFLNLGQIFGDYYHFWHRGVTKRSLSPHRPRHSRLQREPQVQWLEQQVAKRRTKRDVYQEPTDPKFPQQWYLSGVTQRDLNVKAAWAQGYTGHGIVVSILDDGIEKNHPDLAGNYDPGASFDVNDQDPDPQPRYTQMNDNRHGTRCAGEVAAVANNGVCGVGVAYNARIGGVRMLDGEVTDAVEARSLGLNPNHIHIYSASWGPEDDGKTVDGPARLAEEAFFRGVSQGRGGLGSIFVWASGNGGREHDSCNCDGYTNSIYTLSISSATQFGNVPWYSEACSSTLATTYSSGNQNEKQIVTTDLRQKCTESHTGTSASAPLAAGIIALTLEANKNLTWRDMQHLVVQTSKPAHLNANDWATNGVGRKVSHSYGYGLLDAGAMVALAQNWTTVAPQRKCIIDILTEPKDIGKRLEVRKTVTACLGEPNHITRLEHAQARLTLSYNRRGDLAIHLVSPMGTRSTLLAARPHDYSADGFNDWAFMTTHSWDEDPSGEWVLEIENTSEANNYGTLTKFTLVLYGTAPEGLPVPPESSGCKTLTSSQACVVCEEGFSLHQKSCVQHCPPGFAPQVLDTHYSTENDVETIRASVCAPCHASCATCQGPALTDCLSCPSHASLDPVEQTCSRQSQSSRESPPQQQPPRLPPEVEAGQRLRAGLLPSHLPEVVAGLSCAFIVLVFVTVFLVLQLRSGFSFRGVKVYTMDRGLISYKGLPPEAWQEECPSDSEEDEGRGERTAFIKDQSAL
- procedure.details: furin cleavage Z-score vs untreated control; higher = more cleavage, active = 3.5 or more, inactive = 1 or less, 8 variable residues between constant flanks
- cond: 7.5 min
Some of the results follow. No count for the full screen is at hand.
# furin cleavage Z-score listing for each entry below
Write the value as a bare number.

CAGLEVVTSTAGNASASA [HC2276] = 1.36
CAAWYLKGKWAGNASASA [HC548] = -0.848
CARTRRNIDAAGNASASA [FS-3111] = 6.35
CARTRRSINSAGNASASA [FS-2316] = 7.8

Form field furin cleavage Z-score, entry CARTRRTSKPAGNASASA [FS-1937] : 0.687

Measured furin cleavage Z-score, CASNGRRKRSAGNASASA [FS-1570] : 11

Recorded result, CALRYRHKRLAGNASASA [FS-1542] , furin cleavage Z-score: 9.71

furin cleavage Z-score reading for CAGPKDQKRSAGNASASA [FS-1002] : 0.96

Looking up CAAPRRLRRAAGNASASA [FS-7] , I see its furin cleavage Z-score listed as 6.44

Each recorded value in this set is attributed to the supplement of paper PMC3545927.
